This collection of values is drawn from the nanobody polyreactivity screen of Harvey et al. (2022).

- protocolSummary: yeast display, Sf9 membrane polyspecificity reagent, FACS + sequencing; frameworks hold sequencing errors
attributeMeasured: polyreactivity (PSR sort gate)

1) HVQLVESVGGLVQAGGSLRLSCAASGSTFFYNAMAWYRQAPGKERELVAAITVTGNSTYYADSVKGRFTISRDNAKNTVYLQMNSLKPEDTAVYYCNTSLKRRRLRFNYWGQGTQVTVSS ... low polyreactivity
2) QVQLVESGGGLVQAGGSLRLSCAASGIIFDGYAMGWYRQAPGKERELVAAISRRGGSTYYADSVKGRFTISRDNAKNTVYLQMNSLKPEDTAVYYCAAEYVYWRIGQYDYWGQGTQVTVSS ... high polyreactivity
3) QVQLVESGGGLVQAGGSLRLSCAASGSTFVHYDMGWYRQAPGKERELVAGSTTGGSTNYADSVKGRFTISRDNAKNTVYLQMNSLKPEDTAVYYCNADSYPNLVPDYLYYWYEYWGQGTQVTVSS ... low polyreactivity
4) QVQLVESGGGLVQAGGSLRLSCAASGFTFNRYAMGWYRPAPGKERELVAAISRSTATTYYADSVKGRFTISRDNAMNTVYLQMNSLKPEDTAVFYCNSPQRYWPPYGYWGQGTQVTVSS ... high polyreactivity
5) QDQLVDSGGGLVQAGGSLSLSCAASGSILRTYAMGWYRQAPGKERELVAAISYRGVSTYYADSVKGRFTISRDNAKNTVYLQMNSLKPEDTAVYYCAADQLSDEYDYWGQGTQVTVSS ... high polyreactivity
6) QVQLVESDGGLVQAGGSLRLSCAASGYIFGGYAMRWYRHAPGKERELVAAISYGVGSTYYADSVKGRFTISRDNAKNTVYLQMNSLKPEDTAVYYCAADVFFYVYEAYLLYYWGQGTQVTVSS ... low polyreactivity
7) QVQLVESGGGLVQAGGSLRLSCAASGSIFRRYAMGWYRQAPGKERELVAAITGTGGRTYYADSVKGRFTMSRDNAKNTVYLQMNSLKPEDTAVYYCNKLVTYYRADPEYDYWGQGTHVTVSS ... high polyreactivity
8) QVQLVESGGGLVQAGGSLRLSCAASGRTFGQYAMGWYRQAPGKERQLVAAISTRGGSTYYADSVKGRFTISRDNAKNTVYLQMNSLKPEDTAVYYCAARPGWFAGYEYWGQGTQVTVSS ... low polyreactivity
9) QVQLVESGGALDQAGGSLRLSCAASGFFRYAMGSYRQAPGKERELVAAITSGGRTNYADSVKGRFTISRDNAKNTVYLQMNSLKPEDTAVYNCAADQGSRSEELDYWGQGTQVTVSS ... low polyreactivity
10) QVQLVESGGGLVQAGGSLRLSCAASGSTFALYAMGGSRPAPGKERELVAVINSGGSTYYADSVKGRFTISRDNAKNTVYLLMNSLKPEDTAVSYCATVYVWAYRGTDSSYRFDYWGKGTQVTVSS ... low polyreactivity
11) QVQLVESGGGLVQAGGCLRLSCAASGFIFRRNALGWYSEAPGKERELVAAMGSRGTATDYADSVKGRFTISRDNAKKTVYLQMNRLNPEDTAVDYCAKSVVAWGPNFRPNHTRGYYWGQGTQATVSS ... low polyreactivity
12) QVQLVESGGGLVQAGGSLRLSCAASGRTFPPYAMGWYRQAPGKERELVAAIRWSGGDTYYADSVKGRFTISRDNAKNTVYLQMNSLKPEDTAVYYCNAVYYSYSYGYNYWGQGTQVTVSS ... high polyreactivity
